assay: in vitro; type: in vitro ADME; conditions: dog, MDCK-MDR1, pH 7.4
quantity-kind: Papp at 1 h, 10 μM (×10⁻⁶ cm/s)
One number for each entry, in ×10⁻⁶ cm/s.

query: Which Papp at 1 h, 10 μM is listed for c1coc(CNc2ncnc3nc[nH]c23)c1 [N-(furan-2-ylmethyl)-7H-purin-6-amine] ?
result: 315

----------
test: in vitro; format: in vitro ADME; details: human, Caco-2, pH 7.4
quantity-kind: Papp at 2 h, 10 μM (×10⁻⁶ cm/s)
Give bare numbers, in ×10⁻⁶ cm/s.

query: Which Papp at 2 h, 10 μM is listed for `c1coc(CNc2ncnc3nc[nH]c23)c1` ?
result: 76
